Test system: PPARg:RXRa IVT, anti-PPARg (NR concentration 270 nM, RXRa partner concentration 90 nM)
Assay: PBM binding z-score (relative to random genomic background probes); higher = stronger binding; sequences stand for … in GC…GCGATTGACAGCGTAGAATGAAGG
Could you label it t if measured PBM binding z-score is 2 or higher, and f otherwise?

Prompt: Identify whether the reported PBM binding z-score of the following sequence is 2 or greater: `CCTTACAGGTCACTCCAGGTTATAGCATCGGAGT`
Completion: t

Prompt: Identify whether the reported PBM binding z-score of the following sequence is 2 or greater: `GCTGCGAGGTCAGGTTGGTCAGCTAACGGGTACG`
Completion: t

Prompt: Identify whether the reported PBM binding z-score of the following sequence is 2 or greater: `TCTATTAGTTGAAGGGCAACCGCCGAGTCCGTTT`
Completion: f

Prompt: Identify whether the reported PBM binding z-score of the following sequence is 2 or greater: `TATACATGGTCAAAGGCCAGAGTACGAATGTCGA`
Completion: f

Prompt: Identify whether the reported PBM binding z-score of the following sequence is 2 or greater: `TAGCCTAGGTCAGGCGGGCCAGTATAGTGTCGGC`
Completion: f

Prompt: Identify whether the reported PBM binding z-score of the following sequence is 2 or greater: `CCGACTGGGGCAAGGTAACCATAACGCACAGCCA`
Completion: t

Prompt: Identify whether the reported PBM binding z-score of the following sequence is 2 or greater: `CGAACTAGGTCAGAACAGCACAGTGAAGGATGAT`
Completion: t

Prompt: Identify whether the reported PBM binding z-score of the following sequence is 2 or greater: `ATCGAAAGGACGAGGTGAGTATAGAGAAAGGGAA`
Completion: f

Prompt: Identify whether the reported PBM binding z-score of the following sequence is 2 or greater: `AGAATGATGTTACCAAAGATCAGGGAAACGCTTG`
Completion: f

Prompt: Identify whether the reported PBM binding z-score of the following sequence is 2 or greater: `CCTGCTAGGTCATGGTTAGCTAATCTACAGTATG`
Completion: t

Prompt: Identify whether the reported PBM binding z-score of the following sequence is 2 or greater: `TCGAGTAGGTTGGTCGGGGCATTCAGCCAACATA`
Completion: f

Prompt: Identify whether the reported PBM binding z-score of the following sequence is 2 or greater: `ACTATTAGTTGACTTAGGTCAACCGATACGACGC`
Completion: f

Every entry's value here was drawn from the supplement of paper PMC6555819.
